B1: F1*; the commonest letter at each place (parent)
chain: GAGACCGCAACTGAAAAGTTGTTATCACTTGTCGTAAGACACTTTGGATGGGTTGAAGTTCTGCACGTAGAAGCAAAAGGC

Variants of: B1
METHOD_SUMMARY: fraction ligated after 30 min (ligated reads / total reads); higher = more ligase activity
RUN_CONDITIONS: with F1*sub RNA substrate (template-directed ligation), 42 °C
READOUT_KIND: fraction ligated

# MUTANT_LABEL, MEASURED_VALUE
records = [
    ("A27G A37T", 0.81),
    ("T30C C40T", 0.808),
    ("A37G A39T", 0.796),
    ("T35A A41G", 0.811),
    ("G34C A39C", 0.806),
    ("C28A G38C", 0.814),
    ("G31C T44C", 0.792),
    ("T30G A39C", 0.786),
    ("A36C A56C", 0.804),
    ("A24G A36T", 0.789),
    ("C26G T43A", 0.783),
    ("A27G C42G", 0.812),
    ("C26A T29C", 0.804),
    ("A37C A39C", 0.782),
    ("T29G C40T", 0.809),
    ("T35G T45G", 0.388),
    ("T54G", 0.807),
    ("A27G C28T", 0.813),
    ("G47A G55C", 0.422),
    ("A56T A57T", 0.454),
    ("C40G T45A", 0.688),
    ("G31T T35A", 0.797),
    ("A41C T49A", 0.178),
    ("A24C C33A", 0.147),
    ("T35C", 0.839),
    ("G38T T44C", 0.831),
    ("C40G G50T", 0.548),
    ("G34A T49C", 0.737),
    ("T23C A48T", 0.0663),
    ("A39G", 0.839),
    ("G31A G47C", 0.0647),
]

// provenance: the supplement of paper PMC6755084
